- Tested on: SNB-75
- assayProcedure: NCI tumour cell line growth inhibition, 48 h
The source made the active and inactive calls. Rule as the data show it: active = GI50 up to about 1.1 µM and inactive = higher. Where a SMILES comes first, the peptide text is derived from it. [ ]: non-standard residue; d: D form. The star is where a group is joined. Phe(4-NO2) = N[CH](Cc1ccc([N+](=O)[O-])cc1)C(=O)O; Boc = CC(C)(C)OC(=O)*
Hi there, I'd appreciate the recorded GI50 for every entry that follows.

Challenge: Can you look up the measured GI50 of COc1nc(N=P(c2ccccc2)(c2ccccc2)c2ccccc2)cc(=O)n1C for me?
Response given: 54.8 µM (inactive)

Challenge: What do you have for O=Cc1coc2ccccc2c1=O ?
Response given: < 0.01 µM (active)

Challenge: What do you have for Cc1c(N2C(=O)C(Cl)C2/C=C/c2ccccc2)c(=O)n(-c2ccccc2)n1C (stereo not given) ?
Response given: 34.1 µM (inactive)

Challenge: What do you have for O=C1/C(=C/c2ccccc2[N+](=O)[O-])N=C(c2ccccc2)N1C1Nc2cc3c(cc2S1)NC(N1C(=O)/C(=C/c2ccccc2[N+](=O)[O-])N=C1c1ccccc1)S3 (stereo not given) ?
Response given: > 100 µM (inactive)

Challenge: What do you have for COc1nc2c(c(=O)[nH]1)N=C(c1ccccc1)CC(c1ccccc1)N2 (stereo not given) ?
Response given: 15.3 µM (inactive)

Challenge: What do you have for COc1cc2c(OC)c3cc(C)oc(=O)c3c(O)c2c(O)c1-c1c(OC)cc2c(OC)c3cc(C)oc(=O)c3c(O)c2c1O ?
Response given: 45.1 µM (inactive)

Challenge: What do you have for Cn1/c(=N\c2ccc(Cl)cc2)sc2ccccc21 ?
Response given: 45.8 µM (inactive)

Challenge: What do you have for Cc1nn(C(=O)c2ccc(Cl)cc2)c2c1C(c1ccccc1O)SC(=N)N2 (stereo not given) ?
Response given: > 10 µM (inactive)

Challenge: What do you have for CC1=CC=C2C(C)(C)CC[C@@H]3OC(=O)[C@H]1[C@]23C ?
Response given: > 100 µM (inactive)

Challenge: What do you have for N#Cc1nsnc1-c1nc(-c2nsnc2C#N)nc(-c2nsnc2C#N)n1 ?
Response given: > 100 µM (inactive)

Challenge: What do you have for CC1(C)CC(c2c[nH]c3ccccc23)=CC2=Nc3ccccc3C21O (stereo not given) ?
Response given: 5.94 µM (inactive)

Challenge: What do you have for CC1(C)CC[C@]2(C(=O)O)CC[C@]3(C)C(=CC[C@@H]4[C@@]5(C)CC[C@H](OC6OC(C(=O)O)C(O)C(O)C6O)C(C)(C)[C@@H]5CC[C@]43C)[C@@H]2C1 (stereo not given in full) ?
Response given: 18.1 µM (inactive)

Challenge: What do you have for O=c1cc(-c2ccccc2F)[nH]c2cc3c(cc12)OCO3 ?
Response given: 0.247 µM (active)

Challenge: What do you have for COc1cc(C2c3c(ccc4ccccc34)C(=O)C3CCC(=O)N32)cc(OC)c1O (stereo not given) ?
Response given: > 25 µM (inactive)

Challenge: What do you have for O=C1OC(OC/C(Br)=C(/Br)COC2OC(=O)C(Cl)=C2Cl)C(Cl)=C1Cl (stereo not given) ?
Response given: 18.7 µM (inactive)

Challenge: What do you have for CC1C(=O)OCC2=CCN3CCC(OC(=O)C(C)C1(C)O)C23 (stereo not given) ?
Response given: > 100 µM (inactive)

Challenge: What do you have for O=c1c2ccccc2[nH]c2c(Cl)cc(Cl)c(NC3CCCCC3)c12 ?
Response given: 27.2 µM (inactive)

Challenge: What do you have for CCOC(=O)CC(C)C1(C(=O)OCC)CCCCC1=O (stereo not given) ?
Response given: > 100 µM (inactive)

Challenge: What do you have for Cc1ccc(CCCC(=O)O)cc1C ?
Response given: 39.1 µM (inactive)

Challenge: What do you have for COC1=CC(=O)[C@@]2(C)C(C)[C@H](c3ccccc3)[C@H]2C1=O (stereo not given in full) ?
Response given: > 100 µM (inactive)

Challenge: What do you have for CCOC(=O)CCC(NC(=O)C(Cc1ccc([N+](=O)[O-])cc1)NC(=O)OC(C)(C)C)C(=O)NC(CCC(=O)OCC)C(=O)OCC (stereo not given) (Boc-[Phe(4-NO2)]-Glu(OEt)-Glu(OEt)-OEt; configuration not given here) ?
Response given: 15.6 µM (inactive)

Challenge: What do you have for CCOP(=O)(OCC)[C@H](O)c1ccsc1 ?
Response given: > 100 µM (inactive)

Challenge: What do you have for COc1ccc2c(c1)OC(c1ccccc1O)CC2=O (stereo not given) ?
Response given: 30.9 µM (inactive)

Challenge: What do you have for CC(/C=N\NC(=S)N1CCCCC1)=N/NC(=S)N1CCCCC1 ?
Response given: 1.69 µM (inactive)

Challenge: What do you have for COC1(OC)CC2C(=O)N(Cc3ccccc3)C1C(S(=O)(=O)c1ccccc1)C2S(=O)(=O)c1ccccc1 (stereo not given) ?
Response given: 14.2 µM (inactive)

###

- System: SK-OV-3
- assayProcedure: NCI tumour cell line growth inhibition, 48 h
The source made the active and inactive calls. Cut-off read from the data, not from the text of the source: active = GI50 up to about 1.1 µM and inactive = higher.
Assign a class; possible classes are active, inactive

Challenge: Recorded test call requested for C[C@H](OC(=O)/C=C/c1ccc(O)c(O)c1)[C@H](C)OC(=O)/C=C/c1ccc(O)c(O)c1
Response given: inactive

Challenge: What do you have for CCOc1ccc(C2Oc3c(cccc3OC)C=C2[N+](=O)[O-])cc1OCC (stereo not given) ?
Response given: inactive

Challenge: What do you have for O=C(NCCCN1CCN(CCCNC(=O)c2cc(-c3ccccc3)nc3ccccc23)CC1)c1cc(-c2ccccc2)nc2ccccc12 ?
Response given: inactive

Challenge: What do you have for CC1OC(OC2C(Oc3cc(O)c4c(c3)O[C@H](c3ccc(O)cc3)CC4=O)OC(CO)C(O)C2O)C(O)C(O)C1O (stereo not given in full) ?
Response given: inactive

Challenge: What do you have for CC1C(=O)OCC2=CCN3CCC(OC(=O)C(C)C1(C)O)C23 (stereo not given) ?
Response given: inactive

Challenge: What do you have for COc1ccc(/C(C#N)=C(/N)SCc2ccccc2Cl)cc1 ?
Response given: inactive

Challenge: What do you have for C[C@@H]1C[C@@H]([C@H](O)CC2CC(=O)NC(=O)C2)C(=O)[C@@H](C)C1 [CYCLOHEXIMIDE] ?
Response given: active

Challenge: What do you have for O=C(Cc1ccccc1)N/N=C(/c1nc2ccc([N+](=O)[O-])cc2nc1O)C(O)c1ccccc1Cl (stereo not given) ?
Response given: inactive

Challenge: What do you have for COc1ccc2c(c1)CC[C@@H]1[C@@H]2CC[C@]2(C)C(=O)/C(=C/c3ccc(OC)c(OC)c3)C[C@@H]12 ?
Response given: inactive

Challenge: What do you have for CC1=NN(C(=O)Cc2ccccc2)C(=O)/C1=C\c1ccc([N+](=O)[O-])cc1 ?
Response given: inactive

Challenge: What do you have for CCOCc1nc2c(OC)c(-c3nc4ccc(N5CCN(C)CC5)cc4[nH]3)cc(OC)c2[nH]1 ?
Response given: inactive

Challenge: What do you have for C/C(=N\O)c1cccc(Nc2c3ccccc3nc3occc23)c1 ?
Response given: inactive

Challenge: What do you have for O=C(NC(Cc1ccc(Cl)cc1)C(=O)O)c1ccc(I)cc1 (stereo not given) ?
Response given: inactive

Challenge: What do you have for CC(=O)NNc1nc(C)c(C(=O)NNC(=O)C(=O)Nc2ccc(Cl)cc2Cl)s1 ?
Response given: inactive

Challenge: What do you have for CCOC(=O)C1(C#N)C(c2ccccc2)CC(O)(c2ccc(OC)cc2)C(C(=O)c2ccc(OC)cc2)C1c1ccccc1 (stereo not given) ?
Response given: inactive

Challenge: What do you have for Cc1ccc2c(O)cc(-c3cc4ccccc4s3)nc2n1 ?
Response given: inactive

Challenge: What do you have for CCC1(C(=O)OC)CCc2c(OC)ccc(OC)c2C1=O (stereo not given) ?
Response given: inactive

Challenge: What do you have for O=C1OC(OC/C(Br)=C(/Br)COC2OC(=O)C(Cl)=C2Cl)C(Cl)=C1Cl (stereo not given) ?
Response given: inactive

Challenge: What do you have for CC1(C)C2CCC1C(=O)[C@@]1(C=CC(=O)CC1)C2 (stereo not given in full) ?
Response given: inactive

Challenge: What do you have for CCCCCCCc1cscc1-c1cscc1Br ?
Response given: inactive

Challenge: What do you have for Cn1c(-c2ccccc2)cc(-c2ccc3c(c2)OCO3)c1-c1cccs1 ?
Response given: inactive

Challenge: What do you have for CCOC(=O)C1=NOC2(C=C(Br)C(=O)C(Br)=C2)C1 ?
Response given: inactive

Challenge: What do you have for S=C(NC/C(Br)=C/Br)Nc1cccc2ccccc12 ?
Response given: inactive

Challenge: What do you have for CCOC(=O)C1C(=O)CC1(C)C (stereo not given) ?
Response given: inactive

Challenge: What do you have for O=C1C=C(OCCCl)C(=O)c2c(O)ccc(O)c21 ?
Response given: inactive

// data source = ChEMBL document CHEMBL1201862
